Molecular target: Gastrin/cholecystokinin type B receptor (Rattus norvegicus, UniProt P30553)
Sequence (P30553 whole entry): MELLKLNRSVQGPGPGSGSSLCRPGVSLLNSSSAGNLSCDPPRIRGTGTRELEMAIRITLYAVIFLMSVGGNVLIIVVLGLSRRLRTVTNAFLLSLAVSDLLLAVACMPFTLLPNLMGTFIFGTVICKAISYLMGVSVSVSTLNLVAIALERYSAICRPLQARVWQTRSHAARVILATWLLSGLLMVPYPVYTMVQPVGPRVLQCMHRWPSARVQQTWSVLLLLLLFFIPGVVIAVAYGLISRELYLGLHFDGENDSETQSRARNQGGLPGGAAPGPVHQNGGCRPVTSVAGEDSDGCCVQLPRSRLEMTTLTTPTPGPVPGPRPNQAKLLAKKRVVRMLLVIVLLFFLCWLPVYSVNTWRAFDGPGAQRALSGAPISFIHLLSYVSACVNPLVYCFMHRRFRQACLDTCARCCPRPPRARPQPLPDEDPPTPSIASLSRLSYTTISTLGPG
Assay: Displacement of [3H]propionylCCK8 from rat cerebral cortex CCK2
Type: tissue-based
Listed next: entries and their corresponding IC50.

Example entries and their recorded answers appear below.
CC(C)(C)OC(=O)N[C@@H](Cc1c[nH]c2ccccc12)C(=O)N[C@H]1C[C@@H]2c3[nH]c4ccccc4c3C[C@@H](C(=O)N[C@H](Cc3ccccc3)C(N)=O)N2C1=O | 0.524 µM
CC(C)(C)OC(=O)N[C@@H](Cc1c[nH]c2ccccc12)C(=O)N[C@H]1CC[C@@H]2SC[C@@H](C(=O)N[C@@H](Cc3ccccc3)C(N)=O)N2C1=O | > 10 µM
CC(C)(C)OC(=O)N[C@H](Cc1c[nH]c2ccccc12)C(=O)N[C@H]1C[C@@H]2c3[nH]c4ccccc4c3C[C@@H](C(=O)N[C@@H](Cc3ccccc3)C(N)=O)N2C1=O | > 10 µM

Would you mind telling me what IC50 value was observed for CC(C)(C)OC(=O)N[C@@H](Cc1c[nH]c2ccccc12)C(=O)N[C@H]1CC[C@@H]2SC[C@@H](C(=O)N[C@H](Cc3ccccc3)C(N)=O)N2C1=O ?
> 10 µM

Would you mind telling me what IC50 value was observed for CC(C)(C)OC(=O)N[C@@H](Cc1c[nH]c2ccccc12)C(=O)N[C@@H]1C[C@H]2c3[nH]c4ccccc4c3C[C@H](C(=O)N[C@@H](Cc3ccccc3)C(N)=O)N2C1=O ?
> 10 µM
